molecular target: Transient receptor potential cation channel subfamily V member 1 (Rattus norvegicus, UniProt O35433); experiment: Agonist activity at rat TRPV1 expressed in CHO cells by 45Ca2+ uptake assay
Sequence (O35433 whole entry): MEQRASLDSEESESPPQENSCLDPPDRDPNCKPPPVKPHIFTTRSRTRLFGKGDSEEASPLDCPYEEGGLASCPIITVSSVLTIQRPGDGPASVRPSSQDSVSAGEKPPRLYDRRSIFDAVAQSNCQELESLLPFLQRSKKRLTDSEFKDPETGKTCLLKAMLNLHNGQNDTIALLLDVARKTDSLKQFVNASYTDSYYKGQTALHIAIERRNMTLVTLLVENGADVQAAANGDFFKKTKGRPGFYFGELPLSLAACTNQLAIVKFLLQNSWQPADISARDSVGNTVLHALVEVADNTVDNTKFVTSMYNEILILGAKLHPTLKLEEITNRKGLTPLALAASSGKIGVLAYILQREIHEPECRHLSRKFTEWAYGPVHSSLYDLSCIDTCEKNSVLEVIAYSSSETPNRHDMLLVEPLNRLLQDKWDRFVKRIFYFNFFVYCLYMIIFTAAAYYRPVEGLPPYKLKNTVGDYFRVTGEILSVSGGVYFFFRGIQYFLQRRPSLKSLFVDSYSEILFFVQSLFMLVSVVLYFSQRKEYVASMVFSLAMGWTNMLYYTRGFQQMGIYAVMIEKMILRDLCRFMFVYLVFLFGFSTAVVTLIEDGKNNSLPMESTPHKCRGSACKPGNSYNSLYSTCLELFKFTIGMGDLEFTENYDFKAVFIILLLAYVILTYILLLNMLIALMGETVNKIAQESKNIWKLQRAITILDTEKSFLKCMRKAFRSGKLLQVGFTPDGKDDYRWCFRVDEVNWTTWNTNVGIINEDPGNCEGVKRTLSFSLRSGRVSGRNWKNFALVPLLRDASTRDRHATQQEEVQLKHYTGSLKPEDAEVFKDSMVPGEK
observable: EC50 (nM)
Give bare numbers, in nM.

Q: Note EC50 for the molecule shown: "COc1cc(CNC(=S)NCc2ccc(C(C)(C)C)cc2)ccc1NS(C)(=O)=O"
Ans: 32.4

====

target: Transient receptor potential cation channel subfamily V member 1 (Rattus norvegicus); experiment: Displacement of [3H]resiniferatoxin from rat TRPV1 expressed in CHO cells by scintillation counting; format: cell-based
For each record, write down the corresponding Ki.
Numbers only, in nM.

Examples with answers:
compound: COc1c(NS(C)(=O)=O)ccc2c1CCCC2NC(=S)NCc1ccc(C(C)(C)C)cc1 (stereo unspecified)
observable: Ki
reported-measurement: 1750
--
compound: CC(C)(C)c1ccc(CNC(=S)NC2CCc3cc(NS(C)(=O)=O)ccc32)cc1 (stereo unspecified)
observable: Ki
reported-measurement: 660
--
compound: CC(C)(C)c1ccc(CNC(=S)NC2CCCc3cc(NS(C)(=O)=O)ccc32)cc1 (stereo unspecified)
observable: Ki
reported-measurement: 1590
--
compound: COc1c(NS(C)(=O)=O)ccc2c1CCC2NC(=S)NCc1ccc(C(C)(C)C)cc1 (stereo unspecified)
observable: Ki
reported-measurement: 1820
--
compound: COc1cc2c(cc1NS(C)(=O)=O)CCC2NC(=S)NCc1ccc(C(C)(C)C)cc1 (stereo unspecified)
observable: Ki
reported-measurement: 3370

Now look at this entry.
Q: Note Ki for the compound shown: COc1cc2c(cc1NS(C)(=O)=O)CCCC2NC(=S)NCc1ccc(C(C)(C)C)cc1 (stereo unspecified)
Ans: 6900

====

target: Transient receptor potential cation channel subfamily V member 1 (Rattus norvegicus, UniProt O35433); assay: Antagonist activity at rat TRPV1 expressed in CHO cells assessed as capsaicin-stimulated 45Ca2+ uptake; format: functional, cell-based
For each record, write down the corresponding Ki.
Numbers only, in nM.

compound: COc1c(NS(C)(=O)=O)ccc2c1CCC2NC(=S)NCc1ccc(C(C)(C)C)cc1 (stereo not given)
observable: Ki
reported-measurement: 1690
//
compound: COc1c(NS(C)(=O)=O)ccc2c1CCCC2NC(=S)NCc1ccc(C(C)(C)C)cc1 (stereo not given)
observable: Ki
reported-measurement: 4700
//
compound: COc1cc2c(cc1NS(C)(=O)=O)CCC2NC(=S)NCc1ccc(C(C)(C)C)cc1 (stereo not given)
observable: Ki
reported-measurement: 25000
//
compound: CC(C)(C)c1ccc(CNC(=S)NC2CCc3cc(NS(C)(=O)=O)ccc32)cc1 (stereo not given)
observable: Ki
reported-measurement: 740

Now look at this entry.
Q: Note Ki for the compound shown: CC(C)(C)c1ccc(CNC(=S)NC2CCCc3cc(NS(C)(=O)=O)ccc32)cc1 (stereo not given)
Ans: 2640
